- Test details: clinical
- Run parameters: both, human, in vivo

Compound: Nc1nc2ncc(CNc3ccc(C(=O)N[C@@H](CCC(=O)O)C(=O)O)cc3)nc2c(=O)[nH]1
concentration at 1 h / nM: 4.7

###

- Test details: Indirect comparison of AUCs of plasma (6S)-5-Methyl-THF between the 2019 and 2009 studies
- Run parameters: female, human, in vivo, 451 µg

Compound: CN1c2c(nc(N)[nH]c2=O)NC[C@@H]1CNc1ccc(C(=O)N[C@@H](CCC(=O)O)C(=O)O)cc1 [(6S)-5-Methyl-THF-Ca, (6S)-5-Methyltetrahydrofolic acid]
Unit symbol: µM·h
AUC(0-t): 0.136
